Target: muscle-type Torpedo nAChR (Torpedo)
Sequence (P02710 25-461 limits assumed, chain 1 of 4): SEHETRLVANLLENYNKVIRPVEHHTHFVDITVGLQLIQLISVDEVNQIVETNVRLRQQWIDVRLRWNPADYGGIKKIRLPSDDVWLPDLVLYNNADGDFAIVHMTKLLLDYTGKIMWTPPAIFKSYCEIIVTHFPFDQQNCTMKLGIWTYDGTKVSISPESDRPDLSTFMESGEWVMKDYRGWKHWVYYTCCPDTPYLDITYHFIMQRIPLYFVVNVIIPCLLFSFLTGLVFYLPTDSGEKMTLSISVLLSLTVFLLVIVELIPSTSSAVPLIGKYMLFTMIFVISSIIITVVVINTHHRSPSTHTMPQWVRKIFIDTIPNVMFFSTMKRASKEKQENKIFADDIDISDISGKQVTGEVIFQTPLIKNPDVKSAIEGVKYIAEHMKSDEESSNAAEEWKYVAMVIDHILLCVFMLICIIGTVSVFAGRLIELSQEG
Sequence (P02712 25-493 limits assumed, chain 2 of 4, further chain): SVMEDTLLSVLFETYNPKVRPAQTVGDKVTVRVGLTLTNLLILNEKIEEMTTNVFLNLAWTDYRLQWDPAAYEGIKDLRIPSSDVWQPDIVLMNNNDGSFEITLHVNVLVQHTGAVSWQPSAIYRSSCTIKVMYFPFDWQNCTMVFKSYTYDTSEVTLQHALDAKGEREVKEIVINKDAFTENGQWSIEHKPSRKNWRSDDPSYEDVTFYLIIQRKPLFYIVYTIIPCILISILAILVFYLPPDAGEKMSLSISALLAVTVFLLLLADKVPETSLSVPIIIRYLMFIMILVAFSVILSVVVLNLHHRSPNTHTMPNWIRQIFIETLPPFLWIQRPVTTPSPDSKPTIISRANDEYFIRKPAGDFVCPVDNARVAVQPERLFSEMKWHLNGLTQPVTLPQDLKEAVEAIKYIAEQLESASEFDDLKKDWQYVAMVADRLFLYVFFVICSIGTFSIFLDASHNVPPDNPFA
Sequence (P02714 18-506 limits assumed, chain 3 of 4, further chain): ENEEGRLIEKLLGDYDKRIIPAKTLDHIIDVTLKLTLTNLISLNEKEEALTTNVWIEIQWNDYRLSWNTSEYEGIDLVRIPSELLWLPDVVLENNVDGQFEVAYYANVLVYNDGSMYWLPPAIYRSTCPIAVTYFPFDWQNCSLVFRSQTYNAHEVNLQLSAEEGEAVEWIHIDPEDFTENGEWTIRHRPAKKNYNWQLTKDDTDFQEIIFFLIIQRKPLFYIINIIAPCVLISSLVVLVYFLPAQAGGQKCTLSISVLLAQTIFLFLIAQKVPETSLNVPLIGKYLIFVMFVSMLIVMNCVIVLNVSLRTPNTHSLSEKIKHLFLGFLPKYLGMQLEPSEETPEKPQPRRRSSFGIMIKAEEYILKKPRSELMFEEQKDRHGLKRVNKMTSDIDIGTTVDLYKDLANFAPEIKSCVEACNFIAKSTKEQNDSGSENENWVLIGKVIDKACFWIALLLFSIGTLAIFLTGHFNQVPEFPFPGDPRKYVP
Sequence (P02718 22-522 limits assumed, chain 4 of 4, further chain): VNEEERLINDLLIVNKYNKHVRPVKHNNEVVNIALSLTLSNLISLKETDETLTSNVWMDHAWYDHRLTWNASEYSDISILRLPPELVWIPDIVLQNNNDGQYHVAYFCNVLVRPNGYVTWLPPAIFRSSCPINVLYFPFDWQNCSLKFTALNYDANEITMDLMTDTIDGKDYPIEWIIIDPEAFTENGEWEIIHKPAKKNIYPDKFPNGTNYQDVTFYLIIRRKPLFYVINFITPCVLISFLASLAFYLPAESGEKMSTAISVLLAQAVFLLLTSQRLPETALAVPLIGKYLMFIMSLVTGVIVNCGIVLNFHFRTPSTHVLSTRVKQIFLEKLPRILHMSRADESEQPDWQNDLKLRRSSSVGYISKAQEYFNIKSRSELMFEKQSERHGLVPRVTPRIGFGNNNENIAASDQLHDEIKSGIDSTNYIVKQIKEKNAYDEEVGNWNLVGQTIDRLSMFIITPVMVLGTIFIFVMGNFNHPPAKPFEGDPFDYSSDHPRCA
Assay: competition with α-bungarotoxin
Ends that are not written are not given here.
experimental_readout: IC50 (nM)
Give the quantity in nM, number only.

Q: Identify IC50 associated with the binder DNWWPKPPHQGPRPPRPRPKP (not fully specified, source: synthetic peptide) [azemiopsin]
A: 180
